Each recorded value in this set is attributed to the supplement of paper PMC9732359.

procedure summary: protein stability index of a GFP-peptide fusion (yeast GPS) (PSI 1-4); higher = more stable; sorted into four equal gates, so the index is relative within each strain
recorded conditions: ubr1∆
# reported protein stability index; entries follow

| polymer sequence | protein stability index |
| --- | --- |
| SAYVKAFYQKGNKLVEL [SMC1] | 1.58 |
| RRIPKRMRNRALREMRK [POP1] | 2.88 |
| EEAGEEEAKEEVTEEQA [RPS0A] | 3.64 |
| PMASSSSFGSESLTFNE [SWI1] | 3.1 |
| ISLPKGKGIKLSIAEER [RPS4A] | 2.47 |
| MMENYQNISPVYSVDPL [PRP8] | 1.74 |
| NSADAAYAQVEIQPRAN [FAS2] | 2.79 |
| NDNEDDDEEYDYNDVEV [BRR2] | 3.4 |
